# System: PC-3 prostate
# ASSAY SUMMARY: NCI tumour cell line growth inhibition, 48 h
Entries and their TGI
RECORDED METRIC: TGI (µM)

{"MOLECULE": "COC(=O)[C@]12CC[C@@H](C)[C@H](C)[C@@H]1C1=CC[C@@H]3[C@@]4(C)C[C@@H](O)[C@H](O)[C@@](C)(CO)[C@@H]4[C@H](O)C[C@@]3(C)[C@]1(C)CC2", "RECORDED METRIC": "TGI", "RELATION": "=", "MEASUREMENT": 15.6}
{"MOLECULE": "O=[N+]([O-])c1ccc2nc(Nc3ccccc3)c(Nc3ccccc3)nc2c1", "RECORDED METRIC": "TGI", "RELATION": "=", "MEASUREMENT": 10.3}
{"MOLECULE": "O=[N+]([O-])c1cc([N+](=O)[O-])c(C(F)(F)F)cc1NN=C(c1ccc(O)cc1)c1ccc(O)cc1", "RECORDED METRIC": "TGI", "RELATION": "=", "MEASUREMENT": 78}
{"MOLECULE": "COc1ccc(C(c2cc(OC)c(OC)c(OC)c2)n2cncn2)cc1O (centres undefined)", "RECORDED METRIC": "TGI", "RELATION": ">", "MEASUREMENT": 100}
{"MOLECULE": "Cc1cc(Nc2ccc(C)c(Cl)c2)n2nc(C(F)(F)F)nc2n1", "RECORDED METRIC": "TGI", "RELATION": ">", "MEASUREMENT": 100}
{"MOLECULE": "Cc1ccc(S(=O)(=O)N2CC2CCCCC=O)cc1 (centres undefined)", "RECORDED METRIC": "TGI", "RELATION": ">", "MEASUREMENT": 100}
{"MOLECULE": "CCOC(=O)CCCSCCCC(=O)CCCSCCCC(=O)OCC", "RECORDED METRIC": "TGI", "RELATION": ">", "MEASUREMENT": 100}
{"MOLECULE": "Nc1nc2[nH]cc(CCc3ccc(C(=O)N[C@@H](CCC(=O)O)C(=O)O)cc3)c2c(=O)[nH]1", "RECORDED METRIC": "TGI", "RELATION": ">", "MEASUREMENT": 100}
{"MOLECULE": "COc1ccc(CN2C(=O)C(Cl)=C(Nc3cccc(C(F)(F)F)c3)C2=O)cc1", "RECORDED METRIC": "TGI", "RELATION": "=", "MEASUREMENT": 37.3}
